Provide the recorded koff for the entries that follow.
biological target: T1, recombinant C-terminally His-tagged human CD47 (extracellular domain) (human, UniProt Q08722 19-141); test: SPR, Biacore X100; antibody captured by anti-human Fc on a CM5 chip, CD47 extracellular domain as analyte, 1:1 fit
T1 construct: also called recombinantly expressed human CD47 extracellular domain
T1 sequence (Q08722 19-141): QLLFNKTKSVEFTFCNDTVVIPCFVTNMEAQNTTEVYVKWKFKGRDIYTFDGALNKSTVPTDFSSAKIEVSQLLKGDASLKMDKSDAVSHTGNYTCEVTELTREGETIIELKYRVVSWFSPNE
Give bare numbers, in s⁻¹.

2D6-067 (antibody, IgG1, V domains shown, hIgG1 (humanized IgG1); only the variable domains are tied to the construct; also called VH2.5/VL2) VH: QVELVQSGPEVKKPGSSVKVSCKASGYTFPSYDINWVRQRPGQGLEWMGWIYPRFGSPKYNEKFKGRVTITADTSTSTAYMELHSLRSEDTAVYYCARSVYYGTQFAYWGQGTLVTVSA VL: DIVMTQSPSSLAVSLGERVTMSCKSSQSLLNSRTRKNYLAWYQQKPGQPPKLLIYWASTRDSGVPDRFSGSGSGTDFTLTISSLQAEDVAVYYCKQSFNLVTFGGGTKLEIK: 0.16

Dear colleague, could you send me koff for each of the items below? Thanks.
1. 2D6-076 (antibody, IgG1, V domains shown, hIgG1 (humanized IgG1); only the variable domains are tied to the construct; also called VH2/VL2.7) VH: QVELVQSGPEVKKPGSSVKVSCKASGYTFPSYDINWVRQRPGQGLEWMGWIYPRDGSPKYNEKFKGRVTITADTSTSTAYMELHSLRSEDTAVYYCARSVYYGTQFAYWGQGTLVTVSA VL: DIVLTQSPSSLAVSLGERVTMSCKSSQSLLNSRTRKNYLAWYQQKPGQPPKLLIYWASTRDSGVPDRFSGSGSGTDFTLTISSLQAEDVAVYYCQQSFNLVTFGGGTKLEIK
2. 2D6-015 (antibody, IgG4, V domains shown, hIgG4 (humanized IgG4); only the variable domains are tied to the construct; also called VH4/VL3) VH: QVQLVESGGGLVQPGGSLRLSCAASGYTFPSYDINWVRQAPGKGLEWVGWIYPRDGSPKYNEKFKGRFTISADTSKNTAYLQMNSLRAEDTAVYYCARSVYYGTQFAYWGQGTLVTVSS VL: DIQMTQSPSSLSASVGDRVTITCKSSQSLLNSRTRKNYLAWYQQKPGKAPKLLIYWASTRDSGVPSRFSGSGSGTDFTLTISSLQPEDFATYYCKQSFNLVTFGQGTKVEIK

Reply:
1. 0.48
2. 0.22
